This collection of values is drawn from the Human Domainome abundance scans (Beltran et al. 2025).

B1: POU domain, class 2, transcription factor 2, residues 200 to 269; numbered along this chain, P09086 (parent)
chain: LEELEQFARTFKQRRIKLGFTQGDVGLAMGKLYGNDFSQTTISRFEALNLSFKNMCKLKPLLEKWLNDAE

- Variants of: B1
- procedure.text: abundance fitness (aPCA) (normalised: wild type 0, dead -1); higher = more abundant; growth selection in yeast, the domain comes from the species named
- condition.parameters: Homo sapiens
Please go through the items and note down their abundance fitness.
Quick one: just the number, no unit, thanks!

So what does the record say about abundance fitness for L61V ? -0.064

Query N54W next -0.081

Quick one: E5D -0.051

Check G23H too. -0.056

Next entry: Q6V -0.05

Same read-out for K57I ? -0.153

Same again, this time with K31H -0.119

Query S38G next 0.025

Please answer likewise for L4S -0.253

Here is the next variant: Q39G -0.027

Also check M55G -0.097

Same question, T40G this time -0.036

What would you report for L1W ? -0.051

Could you do the same for F52W , please? -0.024

Next variant: T41E -0.029

Subsequent entry: C56A -0.022
